Values of log10 IC50 reported for Cathepsin D (Homo sapiens) appear below.
// stored as log10 of IC50 expressed in nM

Answered cases to consult:
{"columns": ["Molecule", "Tested On", "log10 IC50"],
 "data": [
  ["CC(=O)N[C@@H](Cc1cc(F)cc(F)c1)[C@H](O)CN[C@@]1(c2cccc(C(C)(C)C)c2)CC[C@H](NS(C)(=O)=O)NC1", "Cathepsin D (Homo sapiens)", 3.86],
  ["CS[C@H]1CC[C@@](NC[C@@H](O)[C@H](Cc2cc(F)cc(F)c2)NC(C)=O)(c2cccc(C(C)(C)C)c2)CN1", "Cathepsin D (Homo sapiens)", 1.92],
  ["CC(=O)N[C@@H](Cc1cc(F)cc(F)c1)[C@H](O)CNC1(c2cccc(C(C)(C)C)c2)CCNC(=O)C1 (stereo in doubt; 16)", "Cathepsin D (Homo sapiens)", 3.04],
  ["CC(=O)N[C@@H](Cc1cc(F)cc(F)c1)[C@H](O)CN[C@@]1(c2cccc(C(C)(C)C)c2)CC[C@H](N(O)C(C)=O)NC1", "Cathepsin D (Homo sapiens)", 3.36]
]}

Now, please, on to the next molecule.
Data request: Dear colleague, I am looking for the recorded log10 IC50 of the following molecule: CC(=O)N[C@@H](Cc1cc(F)cc(F)c1)[C@H](O)CNC1(c2cccc(C(C)(C)C)c2)CCc2nc(C)ncc2C1 (mixture of isomers)
Data returned: 2.96

----------
Entries and their measured Papp A→B at 2 h, 5 µM follow.
# Experiment Notes: Apparent permeability from apical side to basolateral side in MDCK2 cells at 5 uM after 120 mins by LC/MS/MS
# Format: ADME, cell-based, Canis lupus familiaris, MDCK-II
# Setup Conditions: dog, MDCK
Your answer is read as ×10⁻⁶ cm/s, so omit the unit and give the number.

{"columns": ["Compound", "Papp A→B at 2 h, 5 µM, ×10⁻⁶ cm/s"],
 "data": [
  ["CC(=O)N[C@@H](Cc1cc(F)cc(F)c1)[C@H](O)CN[C@]1(c2cccc(C(C)(C)C)c2)CC[C@@H](O)CC1", 0.3],
  ["CC(=O)N[C@@H](Cc1cc(F)cc(F)c1)[C@H](O)CNC1(c2cccc(C(C)(C)C)c2)CCc2n[nH]cc2C1 (mixture of isomers)", 1.6]
]}

# context switch: different compound, same Papp A→B at 2 h, 5 µM
Data request: Consider the compound CC(=O)N[C@@H](Cc1cc(F)cc(F)c1)[C@H](O)CNC1(c2cccc(C(C)(C)C)c2)CCOCC1 (mixture of isomers) and give its measured Papp A→B at 2 h, 5 µM.
Data returned: 8.1

----------
# Tested On: Beta-secretase 1 (Homo sapiens, UniProt P56817)
# Sequence (P56817 whole entry): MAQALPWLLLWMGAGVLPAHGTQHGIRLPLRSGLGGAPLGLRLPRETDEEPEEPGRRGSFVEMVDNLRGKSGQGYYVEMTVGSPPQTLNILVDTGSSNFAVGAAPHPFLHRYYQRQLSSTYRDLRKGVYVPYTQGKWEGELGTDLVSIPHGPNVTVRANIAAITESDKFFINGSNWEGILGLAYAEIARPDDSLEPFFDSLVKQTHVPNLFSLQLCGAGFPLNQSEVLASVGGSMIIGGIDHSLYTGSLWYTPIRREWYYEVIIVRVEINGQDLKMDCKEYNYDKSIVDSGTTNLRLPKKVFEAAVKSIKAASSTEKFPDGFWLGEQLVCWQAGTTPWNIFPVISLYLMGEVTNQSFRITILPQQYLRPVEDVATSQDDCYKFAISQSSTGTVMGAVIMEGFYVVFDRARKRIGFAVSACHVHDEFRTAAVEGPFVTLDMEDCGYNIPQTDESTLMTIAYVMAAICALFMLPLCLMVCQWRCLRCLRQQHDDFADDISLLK
Categories are assigned from the measured IC50 using these intervals: Low = under 70 nM, Medium = from 70 nM up to 400 nM, High = 400 nM and over

For orientation, consider the following solved cases.
{"columns": ["Compound", "Class Name"],
 "data": [
  ["CC(=O)N[C@@H](Cc1cc(F)cc(F)c1)[C@H](O)CNC1(c2cccc(C(C)(C)C)c2)CCCC1 (mixture of isomers)", "Medium"],
  ["CC(=O)N[C@@H](Cc1cc(F)cc(F)c1)[C@H](O)CNC1(c2cccc(C(C)(C)C)c2)CCCNC1 (mixture of isomers)", "High"],
  ["CC(=O)N[C@H]1CC[C@@](NC[C@@H](O)[C@H](Cc2cc(F)cc(F)c2)NC(C)=O)(c2cccc(C(C)(C)C)c2)CN1", "Medium"],
  ["CC(=O)N[C@@H](Cc1cc(F)cc(F)c1)[C@H](O)CNC1(c2cccc(C(C)(C)C)c2)CCC(=O)NC1 (mixture of isomers)", "Low"],
  ["CC(=O)N[C@@H](Cc1cc(F)cc(F)c1)[C@H](O)CNC1(c2cccc(C(C)(C)C)c2)CCN(C(N)=O)CC1", "Medium"],
  ["CC(=O)N[C@@H](Cc1cc(F)cc(F)c1)[C@H](O)CNC1(c2cccc(C(C)(C)C)c2)CCNC(=O)C1 (stereo in doubt; 16)", "Low"],
  ["CC(=O)N[C@@H](Cc1cc(F)cc(F)c1)[C@H](O)CNC1(c2cccc(C(C)(C)C)c2)CCNC(=O)C1 (single isomer, unassigned)", "Low"],
  ["CC(=O)N[C@@H](Cc1cc(F)cc(F)c1)[C@H](O)CN[C@@]1(c2cccc(C(C)(C)C)c2)CC[C@H](Nc2ccccn2)NC1", "Medium"],
  ["CC(=O)N[C@@H](Cc1cc(F)cc(F)c1)[C@H](O)CNC1(c2cccc(C(C)(C)C)c2)CCCN(C(C)=O)C1 (mixture of isomers)", "High"],
  ["CC(=O)N[C@@H](Cc1cc(F)cc(F)c1)[C@H](O)CN[C@]1(c2cccc(C(C)(C)C)c2)CC[C@@H](CO)CC1", "Low"]
]}

Data request: GET /class?item= `CC(=O)N[C@@H](Cc1cc(F)cc(F)c1)[C@H](O)CN[C@@]1(c2cccc(C(C)(C)C)c2)CC[C@H](C#N)NC1`
Data returned: Medium

Data request: Lookup `CC(=O)N[C@@H](Cc1cc(F)cc(F)c1)[C@H](O)CN[C@@]1(c2cccc(C(C)(C)C)c2)CC[C@H](N(O)C(C)=O)NC1`
Data returned: Medium

Data request: Continue with `CO[C@H]1CC[C@@](NC[C@@H](O)[C@H](Cc2cc(F)cc(F)c2)NC(C)=O)(c2cccc(C(C)(C)C)c2)CN1`
Data returned: Medium

Data request: Repeat for the following compound: CC(=O)N[C@@H](Cc1cc(F)cc(F)c1)[C@H](O)CNC1(c2cccc(-n3cccn3)c2)CCOC1 (mixture of isomers)
Data returned: High

Data request: Then `CC(=O)N[C@@H](Cc1cc(F)cc(F)c1)[C@H](O)CN[C@]1(c2cccc(C(C)(C)C)c2)CC[C@@H](CCO)CC1` ?
Data returned: High
